- Measurement Target: rat liver microsomal 5α-reductase (Rattus norvegicus, UniProt P24008)
- Construct: The reaction was started with the addition of liver microsomes (20 μg protein); from tissue; host or cells: liver microsomes of male Sprague–Dawley rats
- Sequence (P24008 whole entry): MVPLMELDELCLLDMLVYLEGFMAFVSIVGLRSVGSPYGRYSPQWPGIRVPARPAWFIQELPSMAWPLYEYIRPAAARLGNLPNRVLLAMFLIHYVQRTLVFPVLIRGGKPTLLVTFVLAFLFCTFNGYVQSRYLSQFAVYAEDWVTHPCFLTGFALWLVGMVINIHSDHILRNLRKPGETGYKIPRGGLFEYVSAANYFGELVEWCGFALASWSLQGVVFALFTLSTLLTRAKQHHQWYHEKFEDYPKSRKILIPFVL
- Procedure Text: 5α-reductase assay using rat liver microsomes (testosterone metabolism, HPLC and TLC)
- Assay type: biochemical
- Experimental Setup: test sample 100 μmol/L; testosterone 3.5 μmol/L, 30 min, rat liver microsomes 40 μg/mL, HPLC; mean ± SEM, N = 3
Reported Endpoint: Inhibitory activity on 5α-reductase (% of control)

[[record]]
compound = "O=C(O[C@@H]1Cc2c(O)cc(O)cc2O[C@@H]1c1cc(O)c(O)c(O)c1)c1cc(O)c(O)c(O)c1 [(−)-Epigallocatechin gallate, (−)-epigallocatechin gallate]"
result = "58.6 ± 2.7 % of control"

[[record]]
compound = "O=C1OC[C@H]2OC(=O)c3cc(O)c(O)c(O)c3-c3c(O)c(O)c(O)c4c3C(=O)O[C@H]([C@H]3OC(=O)c5c-4c(O)c(O)c(O)c5[C@H]3O)[C@@H]2OC(=O)c2cc(O)c(O)c(O)c2-c2c1cc(O)c(O)c2O"
result = "113.3 ± 7.6 % of control"


###

Inhibitory activity on 5α-reductase (% of control) values, listed per item
- Measurement Target: rat liver microsomal 5α-reductase (Rattus norvegicus, UniProt P24008)
- Construct: The reaction was started with the addition of liver microsomes (20 μg protein); from tissue; host or cells: liver microsomes of male Sprague–Dawley rats
- Procedure Text: 5α-reductase assay using rat liver microsomes (testosterone metabolism, HPLC and TLC)
- Format: biochemical
- Experimental Setup: test sample 100 μmol/L; testosterone 3.5 μmol/L, 30 min, rat liver microsomes 40 μg/mL, HPLC; mean ± SEM, N = 3
Reported Endpoint: Inhibitory activity on 5α-reductase (% of control)

[[record]]
molecule = "O=C(O[C@@H]1Cc2c(O)cc(O)cc2O[C@@H]1c1ccc(O)c(O)c1)c1cc(O)c(O)c(O)c1 [(−)-Epicatechin gallate, (−)-epicatechin gallate]"
result = "69.4 ± 1.2 % of control"

[[record]]
molecule = "O=C(O[C@H]1[C@@H]2OC(=O)c3cc(O)c(O)c(O)c3-c3c(cc(O)c(O)c3O)C(=O)OC[C@H]2OC(O)[C@@H]1OC(=O)c1cc(O)c(O)c(O)c1)c1cc(O)c(O)c(O)c1 (stereo partly drawn) [1-Desgalloyl eugeniin, 1-desgalloyl eugeniin]"
result = "107.9 ± 0.9 % of control"

[[record]]
molecule = "O=C(OC[C@H]1OC(OC(=O)c2cc(O)c(O)c(O)c2)[C@H](OC(=O)c2cc(O)c(O)c(O)c2)[C@@H](OC(=O)c2cc(O)c(O)c(O)c2)[C@@H]1O)c1cc(O)c(O)c(O)c1 (stereo partly drawn) [Tetragalloyl glucose, 1,2,3,6-tetra-O-galloyl glucose]"
result = "102.8 ± 1.2 % of control"

[[record]]
molecule = "O=C(O[C@@H]1COC(=O)c2cc(O)c(O)c(O)c2-c2c(cc(O)c(O)c2O)C(=O)O[C@H]1[C@@H]1OC(=O)c2cc(O)c(O)c(O)c2-c2c(O)c(O)c(O)c3c2C(=O)O[C@H]1[C@@H]3O)c1cc(O)c(O)c(O)c1 [Casuarinin, casuarinin]"
result = "110.1 ± 0.5 % of control"

[[record]]
molecule = "O=C(OC[C@H]1O[C@@H](OC(=O)c2cc(O)c(O)c(O)c2)[C@H](OC(=O)c2cc(O)c(O)c(O)c2)[C@@H](OC(=O)c2cc(O)c(O)c(O)c2)[C@@H]1OC(=O)c1cc(O)c(O)c(O)c1)c1cc(O)c(O)c(O)c1 [Pentagalloyl glucose, 1,2,3,4,6-penta-O-galloyl glucose]"
result = "107.9 ± 2.2 % of control"

[[record]]
molecule = "O=C(O[C@@H]1O[C@@H]2COC(=O)c3cc(O)c(O)c(O)c3-c3c(cc(O)c(O)c3O)C(=O)O[C@H]2[C@H](OC(=O)c2cc(O)c(O)c(O)c2)[C@H]1OC(=O)c1cc(O)c(O)c(O)c1)c1cc(O)c(O)c(O)c1 [Eugeniin, eugeniin]"
result = "114.6 ± 0.6 % of control"


All figures here come from paper PMC4325551.
